Test system: ABUTH
ASSAY COMMENT: Post-emergence herbicidal action against ABUTH
Format: in vivo, Abutilon theophrasti
SETTINGS: application rate 80 g/ha, rated visually about 3 weeks after treatment
VALUE KIND: Herbicidal action against [%] ABUTH (%)

MOLECULE: C=CC1(C(=O)NC2C=CC(C(=O)OCCCl)C2)CC(c2cc(F)cc(F)c2)=NO1 (mixture of isomers)
VALUE KIND: Herbicidal action against [%] ABUTH
MEASURED NUMBER: 80
--
MOLECULE: CC(C)OC(=O)C1C=CC(NC(=O)C2(C(F)(F)F)CC(c3cc(F)cc(F)c3)=NO2)C1 (mixture of isomers)
VALUE KIND: Herbicidal action against [%] ABUTH
MEASURED NUMBER: 80
--
MOLECULE: C=CC1(C(=O)N[C@H]2CC=C(C(=O)OC(C)C)C2)CC(c2cc(F)cc(F)c2)=NO1 (stereo partly shown)
VALUE KIND: Herbicidal action against [%] ABUTH
MEASURED NUMBER: 80
--
MOLECULE: C=CC1(C(=O)N[C@H]2CC=C(C(=O)OC)C2)CC(c2cc(F)cc(F)c2)=NO1 (stereo partly shown)
VALUE KIND: Herbicidal action against [%] ABUTH
MEASURED NUMBER: 80
--
MOLECULE: COCCOC(=O)C1C=CC(NC(=O)C2(C)CC(c3cc(F)cc(C#N)c3)=NO2)C1 (mixture of isomers)
VALUE KIND: Herbicidal action against [%] ABUTH
MEASURED NUMBER: 90
--
MOLECULE: C=CC1(C(=O)NC2C=CC(C(=O)OCc3ccccc3)C2)CC(c2cc(F)cc(F)c2)=NO1 (mixture of isomers)
VALUE KIND: Herbicidal action against [%] ABUTH
MEASURED NUMBER: 80
--
MOLECULE: C[C@]1(C(=O)N[C@@H]2C=C(C(=O)O)CC2)CC(c2cc(F)cc(F)c2)=NO1
VALUE KIND: Herbicidal action against [%] ABUTH
MEASURED NUMBER: 80
--
MOLECULE: COC(=O)C(NC(=O)C1C=CC(NC(=O)C2(C(F)(F)F)CC(c3cc(F)cc(F)c3)=NO2)C1)C(C)C (mixture of isomers)
VALUE KIND: Herbicidal action against [%] ABUTH
MEASURED NUMBER: 80
--
MOLECULE: CCOC(=O)C1C=CC(NC(=O)C2(C(F)(F)F)CC(c3cc(C)cc(C(F)(F)F)c3)=NO2)C1 (mixture of isomers)
VALUE KIND: Herbicidal action against [%] ABUTH
MEASURED NUMBER: 80
--
MOLECULE: O=C(OCCCl)C1C=CC(NC(=O)C2(C(F)(F)F)CC(c3cccc(Cl)c3)=NO2)C1 (mixture of isomers)
VALUE KIND: Herbicidal action against [%] ABUTH
MEASURED NUMBER: 80

// provenance: patent US12319664B2
